targetSystem: T1, human CD47 on CCRF-CEM cells (human, UniProt Q08722 19-323)
T1 construct: whole, on cells
test: flow cytometry on CCRF-CEM cells, MFI curve
endpointLabel: EC50
Hey, just the number and the unit after it is fine.

# example entries with known answers
{"columns": ["binder", "endpointLabel", "result"],
 "data": [
  ["7A11H14 (antibody, V domains shown, also called CD47 antibody) VH: QVQLVQPGAEVKKPGASVKLSCKASGSSFTSNWMNWVRQAPGQGLEWIGMIHPSDSETRLNQKFKDRATLTVDKSTSTAYMELSSPRSEDTAVYYCARGTTVVDAFAYWGQGTTVTVSS VL: DIVMTQSPDSLAVSLGERATMNCKSSQSLLNTRTRKNYLAWYQQKPGQPPKLLIYWASTRESGVPDRFSGSGSGTDFTLTISSLQAEDVAVYYCKQSYNLRTFGGGTKLEIK", "EC50", "0.933 nM"],
  ["7A11H12 (antibody, V domains shown, also called CD47 antibody) VH: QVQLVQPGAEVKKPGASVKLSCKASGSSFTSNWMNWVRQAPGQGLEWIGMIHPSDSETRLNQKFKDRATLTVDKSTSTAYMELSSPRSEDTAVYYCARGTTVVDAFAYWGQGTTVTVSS VL: DIQMTQSPSSLSASVGDRVTMTCKSSQSLLNSRTRKNYLAWYQQKPGKAPKLLIYWASTRESGVPSRFSGSGSGTDFTLTISSLQPEDFATYYCKQSYNLRTFGGGTKLEIK", "EC50", "0.716 nM"]
]}

// switching to the query binder
Query: Given the binder 7A11H42 (antibody, V domains shown, also called CD47 antibody) VH: QVQLVQSGAEVKKPGSSVKVSCKASGSSFTSNWMNWVRQAPGQGLEWIGMIHPSDSETRLNQKFQGRVTITADKSTSTAYMELSSLRSEDTAVYYCARGTTVVDAFAYWGQGTTVTVSS VL: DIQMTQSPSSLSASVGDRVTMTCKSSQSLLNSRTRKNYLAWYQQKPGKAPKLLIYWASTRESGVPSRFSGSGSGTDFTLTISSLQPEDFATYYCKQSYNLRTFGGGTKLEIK , what is its reported EC50?
Result: 0.727 nM
